- System: P388 leukemia ip, CD2F1 mice, survival T/C
- assay.procedure: NCI In Vivo Anticancer Drug Screen. Data for tumor model P388 Leukemia (intraperitoneal) in CD2F1 (CDF1) mice
- experimental.context: endpoint: median survival time; dose: 50.0 mg/kg/injection; schedule: Q01DX005 (ip); vehicle: Klucel (hydroxypropylcellulose) (HPC); higher = longer survival
Toxic doses and inconclusive results are not listed.
measured.endpoint: T/C

Query: Record lookup: for P388 leukemia ip, CD2F1 mice, survival T/C, what T/C belongs to "O=[N+]([O-])c1ccc(-c2nnn(CCCN3CCOCC3)c2N2CCCCC2)cc1" ?
Result: 107 % of control

Query: Lookup: T/C / P388 leukemia ip, CD2F1 mice, survival T/C / "Cc1cccc(C(O)(c2cccc(C)c2)C2(O)CCN(C)CC2)c1"
Result: 98 % of control

Query: Fill in the recorded T/C for this molecule, with P388 leukemia ip, CD2F1 mice, survival T/C as test system: CC1CCCCN1C(=O)C(c1ccccc1)(c1ccccc1)c1ccccc1 (stereo not drawn)
Result: 99 % of control

Query: Please state recorded T/C (tested on P388 leukemia ip, CD2F1 mice, survival T/C) of "COc1nc(COC(=O)NC(C)C)c(COC(=O)NC(C)C)n1C"
Result: 123 % of control

Query: Item: COc1ccc(C2OC3=C(Nc4ccc([N+](=O)[O-])cc4N3)C2=O)c(OC)c1 (stereo not drawn) Test system: P388 leukemia ip, CD2F1 mice, survival T/C Read-out: T/C Value: ?
Result: 93 % of control

Query: Give the reported T/C for CC1(C)CC(C)(O)N(CCc2ccccc2)C(=S)N1 (stereo not drawn) (system: P388 leukemia ip, CD2F1 mice, survival T/C).
Result: 106 % of control

Query: # value lookup — system P388 leukemia ip, CD2F1 mice, survival T/C, readout T/C, item "Nc1nnc(SCCCCCCCCCCCCSc2nnc(N)s2)s1"
Result: 89 % of control

Query: Form field - read-out: T/C; system: P388 leukemia ip, CD2F1 mice, survival T/C; submitted item: O=C1C=C(O)CC(c2ccccc2)N1 (stereo not drawn)
Result: 102 % of control

###

- Tested on: P388 leukemia ip, CD2F1 mice, survival T/C
- assay.procedure: NCI In Vivo Anticancer Drug Screen. Data for tumor model P388 Leukemia (intraperitoneal) in CD2F1 (CDF1) mice
- experimental.context: endpoint: median survival time; dose: 240.0 mg/kg/injection; schedule: Q01DX005 (ip); vehicle: Klucel (hydroxypropylcellulose) (HPC); higher = longer survival
Inconclusive results and toxic doses are left out.
We begin with a simple list: items and their reported T/C.

• Cc1nc2cncnc2n(CCN2CCOCC2)c1=O = 96 % of control

Query: What value of T/C has been reported for the following molecule? COC1=CC23CCCN2CCc2cc4c(cc2C3C1O)OCO4 (stereo not given)
Result: 101 % of control

Query: T/C for "Cc1c(C(N)=O)c(-c2ccccc2)c(-c2ccccc2)n1Nc1ccccc1" ?
Result: 92 % of control

Query: Give the measured T/C of COC(=O)C12CN3CC(C)(C1)C(=O)C(C)(C3)C2=O (stereo not given) .
Result: 89 % of control

Query: Param item = "CCOC(=O)Nc1cc(NCC(=O)c2ccc3ccccc3c2)c([N+](=O)[O-])c(N)n1" ; retrieve measured T/C.
Result: 98 % of control

Query: GET /values?readout=T/C&item= "c1ccc2c(c1)[nH]c1c3ccccc3sc21"
Result: 105 % of control

Query: # query: T/C of entry "CSc1nsc(SC)c1C(N)=O"
Result: 105 % of control

Query: Please report the recorded T/C for "Oc1c2ccccc2cc2cnc3ccccc3c12" .
Result: 111 % of control

Query: Could you tell me which T/C is on file for O=C1OCCC12C(c1ccccc1)C1(CCOC1=O)C2c1ccccc1 (stereo not given) ?
Result: 94 % of control

Query: I am curious: what T/C value has been reported for CC1(C)COC2(OCC(COc3ccccc3)O2)C1O (stereo not given) ?
Result: 98 % of control

###

Quick reference for T/C among some compounds
- System: P388 leukemia ip, CD2F1 mice, survival T/C
- assay.procedure: NCI In Vivo Anticancer Drug Screen. Data for tumor model P388 Leukemia (intraperitoneal) in CD2F1 (CDF1) mice
- experimental.context: endpoint: median survival time; dose: 50.0 mg/kg/injection; schedule: Q01DX009 (ip); vehicle: suspension in saline; higher = longer survival
- Procedure: The antitumor activity of compounds was measured in mice bearing transplantable tumors. Survival or tumor size were measured and the results are expressed as the measurement made in the treated group (T) divided by the measurement made in the vehicle treated control group (C). The tumor model used in this assay is P388 Leukemia (intraperitoneal) in CD2F1 (CDF1) mice
Inconclusive results and toxic doses are left out.

Record excerpt, results attached:
- CC12CC3(C)CC(C)(C1)CC(C(Cl)C(=O)O)(C2)C3 (centres undefined): 100 % of control
- O=C(O)CN1C(=O)c2cccc3cccc(c23)C1=O: 101 % of control

Query: What value of measured T/C is listed for COC1CCC(CO)O1 (centres undefined) ?
Result: 100 % of control

Query: Item under review: "O=[N+]([O-])c1ccc(/C(=C/c2ccc(F)cc2)S(=O)(=O)c2ccccc2)o1" . Reported T/C?
Result: 97 % of control

###

Readings of T/C for the listed compounds
- Tested on: P388 leukemia ip, CD2F1 mice, survival T/C
- assay.procedure: NCI In Vivo Anticancer Drug Screen. Data for tumor model P388 Leukemia (intraperitoneal) in CD2F1 (CDF1) mice
- experimental.context: endpoint: median survival time; dose: 15.0 mg/kg/injection; schedule: Q01DX005 (ip); vehicle: Klucel (hydroxypropylcellulose) (HPC); higher = longer survival
Toxic doses and inconclusive results are not listed.

- Oc1cc2cccc[n+]2c2ccccc12: 99 % of control
- CSC1=CC(=NCc2ccccc2)CC(C)(C)S1: 110 % of control
- CC(=O)c1coc2c(c(C)nn2-c2ccccc2)c1=O: 100 % of control
- O=c1oc2ccccc2c(O)c1C1=N/C(=N/N=C/c2ccc(Cl)cc2)SC1: 98 % of control
- [N-]=[N+]=NC(=O)Nc1ccccc1F: 104 % of control
- O=C(O)c1cnc2c(C(F)(F)F)cccc2c1Nc1ccc2c(c1)OCO2: 101 % of control
- NC(=NCc1ccccc1)N/N=C\c1ccnc2ccccc12: 101 % of control

Query: Entry OC(c1ccco1)c1nc2ccccc2s1 (stereo not drawn) : reported T/C = ?
Result: 106 % of control

###

- Tested on: P388 leukemia ip, CD2F1 mice, survival T/C
- assay.procedure: NCI In Vivo Anticancer Drug Screen. Data for tumor model P388 Leukemia (intraperitoneal) in CD2F1 (CDF1) mice
- experimental.context: endpoint: median survival time; dose: 50.0 mg/kg/injection; schedule: Q01DX009 (ip); vehicle: saline
Toxic doses and inconclusive results are not listed. The calls were made as follows: active = survival T/C of 150% or more; inactive = T/C below 125% in these data.
One label from this list, please: yes for active, no for inactive

Below, 3 molecules whose answers are already recorded.
* CC(=O)OC1C(Br)C2CC1C1(Cl)C(=O)C(Cl)=C(Cl)C(=O)C21Cl (configuration not stated) | no
* CC(N)CN1CC(C)N=C1c1ccncc1 (configuration not stated) | no
* CCCCCCCCOS(=O)(=O)c1ccc([N+](C)(C)C)cc1 | no

Query: // return assay outcome for c1ccc(CC23CCCCC2N3)cc1 (configuration not stated)
Result: no

Query: Outcome logged for OC1C(O)C(O)C(O)C(O)C1O (configuration not stated) in this assay:
Result: no

Query: What did the test return for "CC1=C(CN(CC(=O)O)CC(=O)O)C(=O)C(C(C)C)=C/C1=C(\c1ccccc1S(=O)(=O)O)c1cc(C(C)C)c(O)c(CN(CC(=O)O)CC(=O)O)c1C" ?
Result: no

Query: What did the test return for "CCCCC#CC(=O)O" ?
Result: no

Query: For CCCCC(N)P(=O)(O)O (configuration not stated) , which call appears in the assay record?
Result: no

Query: Tell me the recorded outcome of this test for "C[N+](C)(C)CCCO" .
Result: no

Query: Outcome? CN1C2CCC1C(CCl)C(O)C2 (configuration not stated)
Result: no

Query: Record lookup: outcome of this test for "CC1(C)N=C(N)N=C(N)N1c1cccc(CNC(=O)Nc2cccc(S(=O)(=O)F)c2)c1" ?
Result: yes

Query: Which outcome did this test record for the molecule C#CCOCC1CO1 (configuration not stated) ?
Result: no

Query: Check the results log: what was the call for O=C1NC(CN2CCC(O)CC2)C(=O)NC1CN1CCC(O)CC1 (configuration not stated) ?
Result: no

Query: I would be grateful if you could indicate the recorded call for CCOP(=S)(N1CC1(C)C)N1CC1(C)C (configuration not stated) .
Result: no

Query: I would be grateful if you could indicate the recorded call for NCCCC(N)(C(=O)O)C(F)F (configuration not stated) .
Result: no

Query: Dear all, I need the recorded test outcome for "CC(N)=NC(C)C" , thank you.
Result: no

Query: Test call, this molecule: "CC1(C)N=C(N)N=C(N)N1c1ccc(OCCCCNC(=O)c2ccc(S(=O)(=O)F)cc2)c(Cl)c1"
Result: yes
